- measurement.target: Integrin alpha-V/beta-3/alpha-V/beta-5 (Homo sapiens, UniProt P05106+P06756+P18084)
- Sequence (P05106 27-788 limits assumed): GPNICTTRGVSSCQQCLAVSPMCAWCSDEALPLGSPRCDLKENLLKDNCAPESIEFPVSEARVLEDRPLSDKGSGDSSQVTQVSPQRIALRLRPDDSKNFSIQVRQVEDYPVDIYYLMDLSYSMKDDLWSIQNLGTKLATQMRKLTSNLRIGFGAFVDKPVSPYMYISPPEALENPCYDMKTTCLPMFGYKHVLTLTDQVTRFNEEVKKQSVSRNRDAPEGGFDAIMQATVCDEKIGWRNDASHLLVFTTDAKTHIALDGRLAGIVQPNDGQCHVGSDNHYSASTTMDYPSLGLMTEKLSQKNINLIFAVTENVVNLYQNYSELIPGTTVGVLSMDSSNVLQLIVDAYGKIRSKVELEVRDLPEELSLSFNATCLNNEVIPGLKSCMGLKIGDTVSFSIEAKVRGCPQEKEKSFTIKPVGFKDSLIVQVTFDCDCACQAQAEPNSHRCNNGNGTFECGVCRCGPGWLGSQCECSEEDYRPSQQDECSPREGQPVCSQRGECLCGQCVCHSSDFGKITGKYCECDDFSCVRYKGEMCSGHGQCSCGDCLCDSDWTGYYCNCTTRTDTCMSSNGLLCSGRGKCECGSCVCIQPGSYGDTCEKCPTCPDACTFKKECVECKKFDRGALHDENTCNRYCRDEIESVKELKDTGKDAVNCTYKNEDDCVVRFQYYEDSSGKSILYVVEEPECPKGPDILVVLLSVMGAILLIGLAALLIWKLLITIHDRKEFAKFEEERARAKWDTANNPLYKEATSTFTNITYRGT
- Sequence (P06756 31-889 limits assumed): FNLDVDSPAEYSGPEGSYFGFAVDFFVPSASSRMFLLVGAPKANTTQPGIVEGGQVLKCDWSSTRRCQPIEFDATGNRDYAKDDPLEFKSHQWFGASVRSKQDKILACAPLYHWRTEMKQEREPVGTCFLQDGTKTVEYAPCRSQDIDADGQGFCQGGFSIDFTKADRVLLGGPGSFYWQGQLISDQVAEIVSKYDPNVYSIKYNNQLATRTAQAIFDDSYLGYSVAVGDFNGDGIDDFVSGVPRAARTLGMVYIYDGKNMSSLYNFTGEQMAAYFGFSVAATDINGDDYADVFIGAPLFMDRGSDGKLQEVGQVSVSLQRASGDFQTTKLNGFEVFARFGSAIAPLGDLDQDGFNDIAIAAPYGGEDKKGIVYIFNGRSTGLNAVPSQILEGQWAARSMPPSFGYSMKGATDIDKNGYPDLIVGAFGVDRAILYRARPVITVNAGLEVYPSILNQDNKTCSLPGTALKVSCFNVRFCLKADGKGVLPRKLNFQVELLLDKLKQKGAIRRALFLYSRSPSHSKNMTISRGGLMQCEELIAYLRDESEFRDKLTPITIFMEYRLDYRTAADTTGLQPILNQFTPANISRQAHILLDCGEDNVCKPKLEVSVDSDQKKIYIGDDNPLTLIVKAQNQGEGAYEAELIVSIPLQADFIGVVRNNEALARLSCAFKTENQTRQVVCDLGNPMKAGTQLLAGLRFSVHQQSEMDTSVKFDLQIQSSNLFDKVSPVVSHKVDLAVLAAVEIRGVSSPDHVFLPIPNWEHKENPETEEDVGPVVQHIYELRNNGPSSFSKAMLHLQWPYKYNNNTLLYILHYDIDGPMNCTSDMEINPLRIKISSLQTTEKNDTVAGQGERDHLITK
- Sequence (P06756 891-1048 limits assumed): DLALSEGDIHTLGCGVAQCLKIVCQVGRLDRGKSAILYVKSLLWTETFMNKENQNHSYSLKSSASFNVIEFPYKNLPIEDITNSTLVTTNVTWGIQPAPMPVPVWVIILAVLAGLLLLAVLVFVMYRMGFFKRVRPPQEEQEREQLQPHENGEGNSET
- Sequence (P18084 24-799 limits assumed): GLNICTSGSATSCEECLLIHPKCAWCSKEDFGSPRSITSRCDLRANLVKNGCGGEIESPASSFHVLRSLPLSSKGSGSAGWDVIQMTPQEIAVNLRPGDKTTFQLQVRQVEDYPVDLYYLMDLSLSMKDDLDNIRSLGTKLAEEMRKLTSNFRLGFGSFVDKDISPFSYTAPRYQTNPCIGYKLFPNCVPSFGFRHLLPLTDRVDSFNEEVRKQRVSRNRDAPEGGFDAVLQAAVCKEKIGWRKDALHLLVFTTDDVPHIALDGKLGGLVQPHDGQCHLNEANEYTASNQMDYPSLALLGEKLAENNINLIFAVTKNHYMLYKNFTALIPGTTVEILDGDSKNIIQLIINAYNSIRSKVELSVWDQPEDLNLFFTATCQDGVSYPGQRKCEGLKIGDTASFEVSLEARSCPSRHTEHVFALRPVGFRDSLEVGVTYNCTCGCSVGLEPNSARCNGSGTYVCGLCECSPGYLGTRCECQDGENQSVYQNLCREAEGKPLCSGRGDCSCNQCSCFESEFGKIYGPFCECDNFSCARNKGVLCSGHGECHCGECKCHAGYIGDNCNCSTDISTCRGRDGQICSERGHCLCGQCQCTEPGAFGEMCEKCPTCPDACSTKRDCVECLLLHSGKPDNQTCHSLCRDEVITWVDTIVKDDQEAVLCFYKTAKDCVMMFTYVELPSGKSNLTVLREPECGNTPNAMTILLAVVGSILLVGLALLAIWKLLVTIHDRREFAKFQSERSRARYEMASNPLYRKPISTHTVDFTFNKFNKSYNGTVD
- measurement.protocol: Antagonist activity at integrin alphaVbeta3alphaVbeta5 (unknown origin) expressed in SKOV3 cells assessed as reduction in cell adhesion to fibrinogen after 2 hrs by MTT assay
- Format: cell-based
pIC50: −log10 of the molar value.
// reported pIC50 per item
readout.kind: pIC50

substance	measurement.target	test.value
H-RGDRGD-OH	Integrin alpha-V/beta-3/alpha-V/beta-5 (Homo sapiens, UniProt P05106+P06756+P18084)	3.12
H-GGGGRGDRGDLPETGGS-OH	Integrin alpha-V/beta-3/alpha-V/beta-5 (Homo sapiens, UniProt P05106+P06756+P18084)	5.40
H-GRGDRGDRGDLPETGGS-OH	Integrin alpha-V/beta-3/alpha-V/beta-5 (Homo sapiens, UniProt P05106+P06756+P18084)	4.13
H-GGGGGGGRGDLPETGGS-OH	Integrin alpha-V/beta-3/alpha-V/beta-5 (Homo sapiens, UniProt P05106+P06756+P18084)	3.99

---

// reported pIC50 per item
- measurement.target: Integrin alpha-V/beta-3 (Homo sapiens, UniProt P05106+P06756)
- Sequence (P05106 27-788 limits assumed): as the sequence (P05106 27-788 limits assumed) above
- Sequence (P06756 31-889 limits assumed): as the sequence (P06756 31-889 limits assumed) above
- Sequence (P06756 891-1048 limits assumed): as the sequence (P06756 891-1048 limits assumed) above
- measurement.protocol: Antagonist activity at integrin alphaVbeta3 (unknown origin) expressed in HEK293 cells assessed as reduction in cell adhesion to fibrinogen after 2 hrs by MTT assay
- Assay type: cell-based
pIC50: −log10 of the molar value.
readout.kind: pIC50

substance	test.value
H-RGDRGD-OH	3.21
H-GRGDRGDRGDLPETGGS-OH	3.82
H-GGGGGGGRGDLPETGGS-OH	3.77
H-GGGGRGDRGDLPETGGS-OH	4.48
